System: A498 renal
Assay: NCI tumour cell line growth inhibition, 48 h
Each entry below carries its recorded TGI.
value.kind: TGI

INSERT INTO results (molecule, result) VALUES
  ('COc1ccc(N2C(=O)C3c4[nH]c5ccc(OCc6ccccc6)cc5c4C4CCC(c5ccccc5)CC4C3C2=O)cc1 (stereo not drawn)', '50.4 µM'),
  ('CNC(C)(C)Cc1ccc(Cl)cc1', '> 100 µM'),
  ('CCN1C(=O)N(CC)C2C1NN=c1s/c(=C\c3ccc(Cl)cc3Cl)c(=O)n12 (stereo not drawn)', '0.0667 µM'),
  ('CC(C)/C(Cl)=N/OC(=O)Nc1ccc(Br)cc1', '33.8 µM'),
  ('O=C(O)c1nc(NCc2nc3cc(Cl)ccc3o2)n[nH]1', '> 100 µM'),
  ('O=c1[nH]/c(=C/c2ccc(OCc3ccccc3)cn2)c(=O)[nH]/c1=C/c1ccccc1', '> 100 µM'),
  ('Nc1n(CC(=O)c2ccccc2)nc2sc(-c3ccccc3)n[n+]12', '86.9 µM'),
  ('O=C1c2cccc([N+](=O)[O-])c2C(=O)N1Cc1ccccc1', '> 100 µM'),
  ('COc1cc(/C=C/C(=O)/C=C/c2cc(OC)c3c(c2)OCO3)cc2c1OCO2', '> 100 µM'),
  ('Cc1ccc2nc(SCC(=O)N=Nc3c(O)[nH]c4ccccc34)n(-c3ccccc3)c(=O)c2c1', '28.1 µM'),
  ('COc1cc(Cl)cc(=O)c(O)c1OC', '> 100 µM'),
  ('C=C1CCC2C3(C)COC(C)(C)OC3CCC2(C)C1C/C=C1/C(=O)OCC1OC(C)=O (stereo not drawn)', '31.5 µM'),
  ('O=C(NCCCOC(=O)CCCCCCCCC(=O)OCCCNC(=O)NC(=O)c1c[nH]c(=O)[nH]c1=O)NC(=O)c1c[nH]c(=O)[nH]c1=O', '> 100 µM'),
  ('Cc1ccc2c(c1)-c1nc(N)c(C#N)c(-c3ccc(Cl)cc3)c1CCS2(=O)=O', '92.1 µM'),
  ('CO/N=C(\COc1ccc2c(c1)[nH]c1ccccc12)c1ccc(OC)cc1', '46 µM'),
  ('COc1ccc([C@H]2[C@H]3COC(=O)[C@H]3C(C#N)=C3Sc4ccccc4N32)cc1', '98.3 µM'),
  ('COc1cc2c(c3c1c(=O)c1ccccc1n3C)C=CC1(CCCC1)O2', '31.9 µM'),
  ('CCOC(=O)Cc1nc2ccc3c(c2[nH]c1=O)C(=O)c1ccccc1C3=O', '> 100 µM'),
  ('C/C(=N/O)c1cccc(Nc2cc(-n3nnc4ccccc43)nc3ccccc23)c1', '55.8 µM'),
  ('COc1ccc2c(c1)C(=O)CC1c3cnccc3C(=O)N21 (stereo not drawn)', '> 100 µM'),
  ('O=C(O)CCNS(=O)(=O)c1ccc(NC(=O)c2ccccc2)cc1', '> 100 µM'),
  ('CSc1ncc2c(n1)C(C#N)C1Sc3ccccc3N1C2=O (stereo not drawn)', '> 100 µM'),
  ('FC(F)(F)c1cccc(-c2nc3nc(Cl)c(Cl)nc3[nH]2)c1', '6.12 µM');

* * *

Test system: OVCAR-3 ovarian
Assay: NCI tumour cell line growth inhibition, 48 h
value.kind: TGI

INSERT INTO assay_data (molecule, value_kind, result) VALUES
  ('CC1=C(C(=O)Nc2ccccc2C)C(c2ccc(Cl)cc2)C(C(=O)Nc2ccccc2C)=C(C)N1', 'TGI', '> 100 µM'),
  ('Cn1c(=O)c(N=Nc2c(=O)n(C)c(=O)n3c2[nH]c2ccccc23)c2[nH]c3ccccc3n2c1=O', 'TGI', '> 100 µM'),
  ('COC1=NCc2ccccc2-c2ccccc21', 'TGI', '> 100 µM'),
  ('N#CC(N)=Nc1ccccc1', 'TGI', '> 100 µM'),
  ('O=S(=O)(/N=c1\scc(-c2ccccc2)n1-c1ccccc1)c1ccc(N2N=C3c4ccccc4CC3C2c2ccc(Cl)cc2)cc1 (centres undefined)', 'TGI', '> 100 µM'),
  ('CC(C)=CCN1c2ccccc2NC(=O)CC1C (centres undefined)', 'TGI', '> 100 µM'),
  ('O=C(Nc1ccccc1)N(C1=NCC(CI)S1)c1ccc(F)c(F)c1 (centres undefined)', 'TGI', '> 100 µM'),
  ('CCOC(=O)Oc1c(OC)cc(C(=O)c2ccc(OC)c(O)c2OC)cc1OC', 'TGI', '> 100 µM'),
  ('O=C1c2cccc([N+](=O)[O-])c2C(=O)N1Cc1ccccc1', 'TGI', '> 100 µM'),
  ('c1ccc(C2ONC3=NCCN32)cc1 (centres undefined)', 'TGI', '66.3 µM'),
  ('Nc1ncn([C@@H]2S[C@H](CO)[C@@H](O)[C@@H]2F)c(=O)n1', 'TGI', '> 100 µM'),
  ('Cc1c(/C=N/NC(=O)c2ccccc2O)c(=O)n(-c2ccccc2)n1C', 'TGI', '> 100 µM'),
  ('c1ccc(/C(=N/Nc2nc3ccccc3s2)C2CCCCC2)nc1', 'TGI', '7.6 µM'),
  ('Oc1cc(Cc2ccccc2)c(Cc2ccccc2)cc1O', 'TGI', '> 10 µM'),
  ('C=CCc1c(Cl)nc(Cl)nc1Cl', 'TGI', '0.311 µM'),
  ('COc1ccc([C@H]2[C@H]3COC(=O)[C@H]3C(C#N)=C3Sc4ccccc4N32)cc1', 'TGI', '68 µM'),
  ('N=C1C(O)C2(I)c3ccccc3N3C(=N)C(O)C4c5ccccc5N1C4C32 (centres undefined)', 'TGI', '> 100 µM'),
  ('CCc1c2c(nc3ccc(OCc4ccc(B(O)O)cc4)cc13)-c1cc3c(c(=O)n1C2)COC(=O)[C@]3(O)CC', 'TGI', '4.46 µM'),
  ('CC(C)(C)c1ccccc1N1C(=O)c2ccc3c4c(ccc(c24)C1=O)N(c1ccccc1C(C)(C)C)C3=O', 'TGI', '> 100 µM'),
  ('C[C@@]1(O)C2CC3CC1(c1ccccc1)CC(/C3=N/O)/C2=N\O (some centres undefined)', 'TGI', '> 100 µM'),
  ('O=c1[nH]cc(NCCCl)c(=O)[nH]1', 'TGI', '> 100 µM'),
  ('CC(=O)Nc1ccc2c(C)c3c(nc2n1)[nH]c1ccccc13', 'TGI', '65.5 µM'),
  ('CC(C)(C)c1ccc(OCCOc2ccc(C(C)(C)C)cc2N)c(N)c1', 'TGI', '> 100 µM'),
  ('O=c1oc2ccccc2c2c1Sc1ccccc1N2', 'TGI', '> 100 µM'),
  ('CCOC(=O)c1ccc(-n2[nH]nc(C(N)=O)c2=O)cc1', 'TGI', '> 100 µM'),
  ('CN1N=CSC12C(=O)N(c1ccccc1)C(=O)N2c1ccccc1 (centres undefined)', 'TGI', '> 100 µM'),
  ('Clc1ccc(-c2cn3ccnc3c(-c3ccc(Cl)cc3)n2)cc1', 'TGI', '> 100 µM'),
  ('O=c1[nH]c(Nc2ccccc2)nc2c1ncn2CC(O)CSCCO (centres undefined)', 'TGI', '> 100 µM'),
  ('O=C(O)CCc1nc2c(n1-c1ccccc1)C(=O)c1ccccc1C2=O', 'TGI', '> 100 µM');

* * *

System: NCI/ADR-RES ovarian
Experiment: NCI tumour cell line growth inhibition, 48 h; in the data active means GI50 below about 0.43 µM; inactive means the rest
Outcome codes: active, inactive

INSERT INTO measurements (molecule, label) VALUES
  ('CCc1c2c(nc3ccc(OCc4ccc(B(O)O)cc4)cc13)-c1cc3c(c(=O)n1C2)COC(=O)[C@]3(O)CC', 'active'),
  ('COc1cc(C)ccc1C(=O)c1ccc(C)cc1OC', 'inactive'),
  ('CCCN1C(=O)NC(=O)C(CC)(N2C(=O)c3c(F)c(F)c(F)c(F)c3C2=O)C1=O (stereo not given)', 'inactive'),
  ('O=S(=O)(Nc1ccc(Br)cc1)c1ccc(-c2cnc(C3CC3)o2)cc1', 'inactive'),
  ('CCOc1ccccc1CCN=C1NC(=O)/C(=C/c2ccc3ncccc3c2)S1', 'inactive'),
  ('O=C(Nc1cccc(Cl)c1)Nn1cnnc1', 'inactive'),
  ('CCOC(=O)Oc1c(OC)cc(C(=O)c2ccc(OC)c(O)c2OC)cc1OC', 'active'),
  ('Cc1c2cnccc2c(C)c2c1c1cc(C#N)ccc1n2C', 'active'),
  ('COc1cc(/C=C/C(=O)/C=C/c2cc(OC)c3c(c2)OCO3)cc2c1OCO2', 'inactive'),
  ('c1ccc(-c2nc(-c3ccccn3)nc(-c3ccccn3)n2)nc1', 'inactive');

* * *

Tested on: BT-549 breast
Test: NCI tumour cell line growth inhibition, 48 h; in the data active = GI50 below about 0.43 µM; inactive = the rest
Possible outcomes: active, inactive

INSERT INTO assay_data (compound, experimental_target, label) VALUES
  ('CC1=C2C(=C[C@@](C)(CO)[C@@H]2OC(=O)N(C)CCN(C)C(=O)OC(C)(C)C)C(=O)[C@](C)(O)C12CC2', 'BT-549 breast', 'inactive'),
  ('N#CC(C#N)=C/C=C(\Cl)c1ccc(Cl)cc1', 'BT-549 breast', 'inactive'),
  ('Cc1ccc2cnc(N)c(C#Cc3cc(C(=O)Nc4ccc(CN5CCN(C)CC5)c(C(F)(F)F)c4)cnc3C)c2c1', 'BT-549 breast', 'inactive'),
  ('C=C1CCC2C3(C)COC(C)(C)OC3CCC2(C)C1C/C=C1/C(=O)OCC1OC(C)=O (configuration not stated)', 'BT-549 breast', 'inactive'),
  ('CC(CO)Nc1cc(-c2[nH]c3cccnc3c2-c2ccc(F)cc2)ccn1 (configuration not stated)', 'BT-549 breast', 'inactive'),
  ('CCN1C(=O)N(CC)C2C1NN=c1s/c(=C\c3ccc(Cl)cc3Cl)c(=O)n12 (configuration not stated)', 'BT-549 breast', 'active'),
  ('CCOc1ccccc1CCN=C1NC(=O)/C(=C/c2ccc3ncccc3c2)S1', 'BT-549 breast', 'inactive'),
  ('O=S(=O)(Nc1ccc(Br)cc1)c1ccc(-c2cnc(C3CC3)o2)cc1', 'BT-549 breast', 'inactive'),
  ('CN1CCC(CNc2cc(C3(C(=O)Nc4cc(C(=O)Nc5ccc(Cl)c(C(F)(F)F)c5)ccc4F)CC3)ncn2)CC1', 'BT-549 breast', 'inactive'),
  ('O=C(Nc1cccc(Cl)c1)Nn1cnnc1', 'BT-549 breast', 'inactive'),
  ('O=C1OCC2=C1C(c1cccc(F)c1)c1cc3c(cc1N2CCO)OCO3 (configuration not stated)', 'BT-549 breast', 'inactive'),
  ('CCc1c2c(nc3ccc(OCc4ccc(B(O)O)cc4)cc13)-c1cc3c(c(=O)n1C2)COC(=O)[C@]3(O)CC', 'BT-549 breast', 'active');
